- Tested on: human monoclonal antibody CRJA
- Format: binding
Label 1 when Binding of CRJA to linear peptide (PEPSCAN-ELISA signal) is strictly below 90; otherwise label 0.

Residue String | Target Or Test System | Answer Label
KGACKLKLCGVLGLR | human monoclonal antibody CRJA | 1
PNNLVVEDEGCTNLS | human monoclonal antibody CRJA | 1
IPEMQSSLLQQHMEL | human monoclonal antibody CRJA | 1
ERGLYKSLKGACKLK | human monoclonal antibody CRJA | 0
VTTTFKRKHFRPTPD | human monoclonal antibody CRJA | 1
TGVVTEAENYTNFVG | human monoclonal antibody CRJA | 1
GVFFNGIILGPDGNV | human monoclonal antibody CRJA | 1
ADAHYKSVRTWNEIL | human monoclonal antibody CRJA | 0
TTKSVSFRRLSHLRK | human monoclonal antibody CRJA | 0
GYILAIKMNGFTCTG | human monoclonal antibody CRJA | 1
EDEGCTNLSGFSYME | human monoclonal antibody CRJA | 1
HLSCPNNLVVEDEGC | human monoclonal antibody CRJA | 1
GCLRVGGRCHPHVNG | human monoclonal antibody CRJA | 0
TIFNKTLMEADAHYK | human monoclonal antibody CRJA | 0
SNETKWCPPDQLVNL | human monoclonal antibody CRJA | 0
LHNPYPDYRWLRTVK | human monoclonal antibody CRJA | 1
LGMSCDIFTNSRGKR | human monoclonal antibody CRJA | 0

###

- Tested on: human monoclonal antibody CR57
- Assay type: binding
Quantity Name: Binding of CR57 (10 μg/ml) to looped/cyclic peptide (PEPSCAN-ELISA)

Residue String | Observed Result
GACKLKLCGVLGLRL | 73
TIFNKTLMEADAHYK | 114
PEMQSSLLQQHMELL | 72
VVEELVRKREECLDA | 30
GLRLMDGTWVAMQTS | 120
VRTWNEILPSKGCLR | 121
MQTSNETKWCPPDQL | 138
QLVNLHDFRSDEIEH | 47
MEADAHYKSVRTWNE | 69
VLGLRLMDGTWVAMQ | 94
ILPSKGCLRVGGRCH | 105
KSVSFRRLSHLRKLV | 114
PGFGKAYTIFNKTLM | 110
WNEILPSKGCLRVGG | 112
LQQHMELLESSVIPL | 136
VDERGLYKSLKGACK | 105
LMEADAHYKSVRTWN | 41
RSDEIEHLVVEELVR | 136
ERGLYKSLKGACKLK | 100
LMDGTWVAMQTSNET | 106
KLKLCGVLGLRLMDG | 13
QHMELLESSVIPLVH | 132
ECLDALESIMTTKSV | 96
EELVRKREECLDALE | 79
EADAHYKSVRTWNEI | 78
KGCLRVGGRCHPHVN | 65
KGACKLKLCGVLGLR | 78
LRLMDGTWVAMQTSN | 98
KLCGVLGLRLMDGTW | 120
RKLVPGFGKAYTIFN | 52
RRLSHLRKLVPGFGK | 111
SSVIPLVHPLADPST | 120
IPLVHPLADPSTVFK | 99
YTIFNKTLMEADAHY | 119
TLMEADAHYKSVRTW | 89
DGTWVAMQTSNETKW | 56
GVLGLRLMDGTWVAM | 118
FVDERGLYKSLKGAC | 97
NGVFFNGIILGPDGN | 58
RKREECLDALESIMT | 132
HVNGVFFNGIILGPD | 97
LGLRLMDGTWVAMQT | 92
SIMTTKSVSFRRLSH | 69
HDFRSDEIEHLVVEE | 24
GVFFNGIILGPDGNV | 57
MTTKSVSFRRLSHLR | 68
KSVRTWNEILPSKGC | 148
NLHDFRSDEIEHLVV | 90
LKLCGVLGLRLMDGT | 89
YKSLKGACKLKLCGV | 96
NVLIPEMQSSLLQQH | 97
ASKGSETCGFVDERG | 96
LRVGGRCHPHVNGVF | 99
VFFNGIILGPDGNVL | 110
VAMQTSNETKWCPPD | 45
EMQSSLLQQHMELLE | 78
LVHPLADPSTVFKDG | 133
DALESIMTTKSVSFR | 127
RLSHLRKLVPGFGKA | 111
AHYKSVRTWNEILPS | 106
LVRKREECLDALESI | 105
DQLVNLHDFRSDEIE | 46
GNVLIPEMQSSLLQQ | 99
VIPLVHPLADPSTVF | 77
TTKSVSFRRLSHLRK | 92
IEHLVVEELVRKREE | 103
FGKAYTIFNKTLMEA | 114
IPEMQSSLLQQHMEL | 66
VLIPEMQSSLLQQHM | 114
HPHVNGVFFNGIILG | 104
AYTIFNKTLMEADAH | 118
GKAYTIFNKTLMEAD | 114
GTWVAMQTSNETKWC | 71
LVVEELVRKREECLD | 68
DERGLYKSLKGACKL | 152

###

- System: human monoclonal antibody CR57
- Format: binding
Readings of Binding of CR57 to looped/cyclic peptide (PEPSCAN-ELISA signal) for the listed sequences
Quantity Name: Binding of CR57 to looped/cyclic peptide (PEPSCAN-ELISA signal)

Residue String | Target Or Test System | Observed Result
GDEAEDFVEVHLPDV | human monoclonal antibody CR57 | 87
DEAEDFVEVHLPDVH | human monoclonal antibody CR57 | 89
LADPSTVFKDGDEAE | human monoclonal antibody CR57 | 134
TVFKDGDEAEDFVEV | human monoclonal antibody CR57 | 111
ADPSTVFKDGDEAED | human monoclonal antibody CR57 | 118
DGDEAEDFVEVHLPD | human monoclonal antibody CR57 | 71
FKDGDEAEDFVEVHL | human monoclonal antibody CR57 | 106
STVFKDGDEAEDFVE | human monoclonal antibody CR57 | 106
EVHLPDVHNQVSGVD | human monoclonal antibody CR57 | 125
VEVHLPDVHNQVSGV | human monoclonal antibody CR57 | 138
EAEDFVEVHLPDVHN | human monoclonal antibody CR57 | 98
VHNQVSGVDLGLPNW | human monoclonal antibody CR57 | 125

###

- Tested on: human monoclonal antibody CR57
- Assay type: binding
Readings of Binding of CR57 to linear peptide (PEPSCAN-ELISA signal) for the listed sequences
Quantity Name: Binding of CR57 to linear peptide (PEPSCAN-ELISA signal)

Residue String | Observed Result
TLMEADAHYKSVRTW | 100
FRSDEIEHLVVEELV | 86
GTWVAMQTSNETKWC | 58
CPPDQLVNLHDFRSD | 93
DKLGPWSPIDIHHLS | 62
ADLDPYDRSLHSRVF | 70
MEADAHYKSVRTWNE | 62
CLDALESIMTTKSVS | 101
DACRAAYNWKMAGDP | 84
EMQSSLLQQHMELLE | 58
KSLKGACKLKLCGVL | 129
DIFTNSRGKRASKGS | 70
LSCPNNLVVEDEGCT | 69
TSNETKWCPPDQLVN | 97
VDERGLYKSLKGACK | 50
KFPIYTILDKLGPWS | 71
SGKCSGVAVSSTYCS | 64
HYKSVRTWNEILPSK | 80

###

- System: human monoclonal antibody CR57
- Assay type: binding
Readings of Binding of CR57 to linear peptide (PEPSCAN-ELISA signal) for the listed sequences
Quantity Name: Binding of CR57 to linear peptide (PEPSCAN-ELISA signal)

Residue String | Target Or Test System | Observed Result
DFRSDEIEHLVVEEL | human monoclonal antibody CR57 | 99
FPSGKCSGVAVSSTY | human monoclonal antibody CR57 | 64
YEESLHNPYPDYRWL | human monoclonal antibody CR57 | 58
MELLESSVIPLVHPL | human monoclonal antibody CR57 | 90
GFTCTGVVTEAENYT | human monoclonal antibody CR57 | 71
LVIISPSVADLDPYD | human monoclonal antibody CR57 | 85
TWVAMQTSNETKWCP | human monoclonal antibody CR57 | 78
FNKTLMEADAHYKSV | human monoclonal antibody CR57 | 111
EHLVVEELVRKREEC | human monoclonal antibody CR57 | 82
QQHMELLESSVIPLV | human monoclonal antibody CR57 | 103
VEDEGCTNLSGFSYM | human monoclonal antibody CR57 | 74
QHMELLESSVIPLVH | human monoclonal antibody CR57 | 98
LVRKREECLDALESI | human monoclonal antibody CR57 | 86
SFRRLSHLRKLVPGF | human monoclonal antibody CR57 | 92
VTTTFKRKHFRPTPD | human monoclonal antibody CR57 | 79
DRSLHSRVFPSGKCS | human monoclonal antibody CR57 | 98
NHDYTIWMPENPRLG | human monoclonal antibody CR57 | 71
SGVAVSSTYCSTNHD | human monoclonal antibody CR57 | 79
SETCGFVDERGLYKS | human monoclonal antibody CR57 | 33
VGYILAIKMNGFTCT | human monoclonal antibody CR57 | 77
ISPSVADLDPYDRSL | human monoclonal antibody CR57 | 50
IWMPENPRLGMSCDI | human monoclonal antibody CR57 | 98
STNHDYTIWMPENPR | human monoclonal antibody CR57 | 60
PNNLVVEDEGCTNLS | human monoclonal antibody CR57 | 78
VAMQTSNETKWCPPD | human monoclonal antibody CR57 | 86
NVLIPEMQSSLLQQH | human monoclonal antibody CR57 | 72
VEELVRKREECLDAL | human monoclonal antibody CR57 | 58
KMAGDPRYEESLHNP | human monoclonal antibody CR57 | 62
GFGKAYTIFNKTLME | human monoclonal antibody CR57 | 78
VNLHDFRSDEIEHLV | human monoclonal antibody CR57 | 83
LESSVIPLVHPLADP | human monoclonal antibody CR57 | 90
TNSRGKRASKGSETC | human monoclonal antibody CR57 | 68
MELKVGYILAIKMNG | human monoclonal antibody CR57 | 76
QLVNLHDFRSDEIEH | human monoclonal antibody CR57 | 60
QSSLLQQHMELLESS | human monoclonal antibody CR57 | 82
MDGTWVAMQTSNETK | human monoclonal antibody CR57 | 97
SHLRKLVPGFGKAYT | human monoclonal antibody CR57 | 113
VSFRRLSHLRKLVPG | human monoclonal antibody CR57 | 90
SRGKRASKGSETCGF | human monoclonal antibody CR57 | 64
PRYEESLHNPYPDYR | human monoclonal antibody CR57 | 73
IYTILDKLGPWSPID | human monoclonal antibody CR57 | 44
FTCTGVVTEAENYTN | human monoclonal antibody CR57 | 83
DAHYKSVRTWNEILP | human monoclonal antibody CR57 | 59
KTTKESLVIISPSVA | human monoclonal antibody CR57 | 101
GNVLIPEMQSSLLQQ | human monoclonal antibody CR57 | 96
DYTIWMPENPRLGMS | human monoclonal antibody CR57 | 93
GDPRYEESLHNPYPD | human monoclonal antibody CR57 | 36
MQSSLLQQHMELLES | human monoclonal antibody CR57 | 65
LIPEMQSSLLQQHME | human monoclonal antibody CR57 | 89
RVFPSGKCSGVAVSS | human monoclonal antibody CR57 | 69
VADLDPYDRSLHSRV | human monoclonal antibody CR57 | 71
WCPPDQLVNLHDFRS | human monoclonal antibody CR57 | 101
SLHSRVFPSGKCSGV | human monoclonal antibody CR57 | 69
ADAHYKSVRTWNEIL | human monoclonal antibody CR57 | 56
RYEESLHNPYPDYRW | human monoclonal antibody CR57 | 69
LGLRLMDGTWVAMQT | human monoclonal antibody CR57 | 102
VVEELVRKREECLDA | human monoclonal antibody CR57 | 62
SSVIPLVHPLADPST | human monoclonal antibody CR57 | 73
FRPTPDACRAAYNWK | human monoclonal antibody CR57 | 43
ACRAAYNWKMAGDPR | human monoclonal antibody CR57 | 82
AAYNWKMAGDPRYEE | human monoclonal antibody CR57 | 68
KGCLRVGGRCHPHVN | human monoclonal antibody CR57 | 68
